# Test system: MIAPaCa-2 (pancreas)
# test-summary: In vitro cytotoxic activity (MTT) assay, MIAPaCa-2
# Format: cell-based
# recorded-conditions: Homo sapiens, MIA PaCa-2; MIAPaCa-2 (pancreas) cells, exposed for 96 hours, 50% inhibition of cell proliferation; read-out: Cytotoxicity activity IC50
# Text: Compounds 1-16 were screened for their in vitro cytotoxic activity utilizing a 3-(4,5-dimethyl-thiazol-2-yl)-2,5-diphenyltetrazolium bromide (MTT) assay against selected cancer human cell lines consisting of PC3 (prostate), HCT116 (colon), A375 (melanoma), H1299 (lung), MIAPaCa-2 (pancreas), HL60 (leukemia), MCF7 (breast), MDA-MB-231 (breast) (T. Mosmann, J. Immunol. Meth., 1983, 65, 55-63). […]
measured-attribute: IC50 (nM)

1. O=C(O)c1n[nH]c2c1c(Nc1cccc(Cl)c1)nc1ccncc12 1400
